# protocol-description: MRT (0 to t) in male Sprague-Dawley rat at 1.5 mg/kg, iv administered as single dose by LC-MS/MS analysis
# Format: ADME, organism-based
# experimental-context: in vivo
quantity-kind: MRT last (min)
Give the number; min is assumed, so skip it.

According to the records, this compound COC(=O)N1N=C(c2cccc(C)c2)CC1c1cc(OC)c(OC)c(OC)c1 (stereo unspecified) displays MRT last of 51

* * *

# protocol-description: Half life in monkey liver microsomes at 5 uM in presence of NADPH regenerating system by LC-MS/MS analysis
# Assay type: ADME, Macaca mulatta, Microsome
# experimental-context: rhesus monkey
quantity-kind: half-life at 5 µM (h)
Dear colleague, please return just the value in h, with no unit written.

Recorded half-life at 5 µM (compound COC(=O)N1N=C(c2cccc(C)c2)CC1c1cc(OC)c(OC)c(OC)c1 (stereo unspecified) ): 2.06
